Every entry's value here was drawn from PubChem BioAssay AID743508.

Target: Drosophila melanogaster bursicon receptor LGR2 (rickets)
Experiment: inhibition of bursicon-stimulated LGR2 cAMP signaling – cell-based, HEK293, CRE-luciferase, beta-gal normalized, dry powder, set 2, dose response (AID 743508)
Settings: HEK293 LGR2 CRE-luciferase cAMP reporter, antagonist
Activity calls are given as the source filed them. No rule for the calls is given here.
Permitted responses: class 1 (active), class 0 (inactive)

Recorded test outcome, item C[C@H]1CCCCO[C@@H](CN(C)S(=O)(=O)c2ccc(Cl)cc2)[C@@H](C)CN([C@@H](C)CO)C(=O)c2cc(NC(=O)NC3CCCCC3)ccc2O1 class 1

Recorded test outcome, item C[C@H]1CCCCO[C@@H](CN(C)C(=O)Nc2ccc(F)cc2)[C@@H](C)CN([C@@H](C)CO)C(=O)c2cc(NC(=O)C3CCCCC3)ccc2O1 class 1

Recorded test outcome, item C[C@H](CO)N1C[C@H](C)[C@H](CN(C)C(=O)Nc2cccc3ccccc23)OCCCC[C@H](C)Oc2ccc(NC(=O)C3CCCCC3)cc2C1=O class 1

Recorded test outcome, item COc1ccc(S(=O)(=O)Nc2ccc3c(c2)C(=O)N([C@@H](C)CO)C[C@H](C)[C@@H](CN(C)C(=O)Nc2cccc4ccccc24)OCCCC[C@H](C)O3)cc1 class 0

Recorded test outcome, item C[C@H](CO)N1C[C@H](C)[C@H](CN(C)C(=O)Nc2cccc3ccccc23)OCCCC[C@H](C)Oc2ccc(NC(=O)NC3CCCCC3)cc2C1=O class 1

Recorded test outcome, item C[C@H](CO)N1C[C@H](C)[C@H](CN(C)C(=O)Nc2ccccc2)OCCCC[C@H](C)Oc2ccc(NC(=O)C3CCCCC3)cc2C1=O class 1

----------
Biological target: Drosophila melanogaster bursicon receptor LGR2 (rickets)
Experiment: inhibition of bursicon-stimulated LGR2 cAMP signaling – cell-based, HEK293, CRE-luciferase, beta-gal normalized, dry powder, set 2, dose response (AID 743508)
Settings: HEK293 LGR2 CRE-luciferase cAMP reporter, antagonist
Active and inactive are the calls of the source. No rule for the calls is given here.
Permitted responses: active, inactive

>  <Sample Smiles>
C[C@H]1CCCCO[C@@H](CN(C)C(=O)Nc2ccc(C(F)(F)F)cc2)[C@@H](C)CN([C@@H](C)CO)C(=O)c2cc(NC(=O)CCC(F)(F)F)ccc2O1

>  <Assigned Class>
active

$$$$
>  <Sample Smiles>
COc1ccc(NC(=O)N(C)C[C@@H]2OCCCC[C@H](C)Oc3ccc(NC(=O)NC4CCCCC4)cc3C(=O)N([C@H](C)CO)C[C@@H]2C)cc1

>  <Assigned Class>
active

$$$$
>  <Sample Smiles>
Cc1ccc(S(=O)(=O)Nc2ccc3c(c2)C(=O)N([C@H](C)CO)C[C@@H](C)[C@H](CN(C)S(=O)(=O)c2cccs2)OCCCC[C@@H](C)O3)cc1

>  <Assigned Class>
inactive

$$$$
>  <Sample Smiles>
COc1ccc(S(=O)(=O)Nc2ccc3c(c2)C(=O)N([C@H](C)CO)C[C@H](C)[C@H](CN(C)S(=O)(=O)c2ccc(F)cc2)OCCCC[C@@H](C)O3)cc1

>  <Assigned Class>
inactive

$$$$

Recorded test outcome, item C[C@H](CO)N1C[C@H](C)[C@H](CN(C)C(=O)Nc2ccc3c(c2)OCO3)OCCCC[C@H](C)Oc2ccc(NC(=O)C3CCCCC3)cc2C1=O active

Recorded test outcome, item C[C@H](CO)N1C[C@H](C)[C@H](CN(C)C(=O)Nc2ccccc2)OCCCC[C@H](C)Oc2ccc(NC(=O)CCC(F)(F)F)cc2C1=O active

Recorded test outcome, item C[C@H]1CCCCO[C@H](CN(C)C(=O)Nc2cccc3ccccc23)[C@@H](C)CN([C@@H](C)CO)C(=O)c2cc(NS(=O)(=O)c3cn(C)cn3)ccc2O1 inactive

----------
Target: Drosophila melanogaster bursicon receptor LGR2 (rickets)
Test: inhibition of bursicon-stimulated LGR2 cAMP signaling – cell-based, HEK293, CRE-luciferase, beta-gal normalized, dry powder, set 2, dose response (AID 743508)
Conditions: HEK293 LGR2 CRE-luciferase cAMP reporter, antagonist
The source made the active and inactive calls. The rule behind the calls is not given here.
Permitted responses: TRUE for active, FALSE for inactive

>  <Sample Smiles>
COc1ccc(S(=O)(=O)N(C)C[C@@H]2OCCCC[C@H](C)Oc3ccc(NS(=O)(=O)c4ccc(Cl)cc4)cc3C(=O)N([C@@H](C)CO)C[C@@H]2C)cc1

>  <Assigned Class>
TRUE

$$$$
>  <Sample Smiles>
C[C@H](CO)N1C[C@H](C)[C@H](CN(C)C(=O)Nc2ccc(F)cc2)OCCCC[C@H](C)Oc2ccc(NC(=O)Nc3ccc(F)cc3)cc2C1=O

>  <Assigned Class>
TRUE

$$$$
>  <Sample Smiles>
C[C@@H]1CN([C@@H](C)CO)C(=O)c2cc(NS(C)(=O)=O)ccc2O[C@@H](C)CCCCO[C@@H]1CN(C)Cc1ccc(C(F)(F)F)cc1

>  <Assigned Class>
FALSE

$$$$

Recorded test outcome, item C[C@H](CO)N1C[C@H](C)[C@H](CN(C)C(=O)Nc2ccc(F)cc2)OCCCC[C@H](C)Oc2ccc(NC(=O)Nc3ccccc3)cc2C1=O TRUE

Recorded test outcome, item C[C@H](CO)N1C[C@H](C)[C@H](CN(C)C(=O)Nc2ccc(C(F)(F)F)cc2)OCCCC[C@H](C)Oc2ccc(NC(=O)NC3CCCCC3)cc2C1=O TRUE

Recorded test outcome, item COc1ccc(S(=O)(=O)N(C)C[C@@H]2OCCCC[C@H](C)Oc3ccc(NS(=O)(=O)c4ccc(F)cc4)cc3C(=O)N([C@@H](C)CO)C[C@@H]2C)cc1 TRUE

Recorded test outcome, item C[C@H](CO)N1C[C@H](C)[C@H](CN(C)C(=O)Nc2ccc3c(c2)OCO3)OCCCC[C@H](C)Oc2ccc(NC(=O)NC3CCCCC3)cc2C1=O TRUE

Recorded test outcome, item C[C@H](CO)N1C[C@H](C)[C@H](CN(C)C(=O)Nc2cccc3ccccc23)OCCCC[C@H](C)Oc2ccc(NC(=O)CCC(F)(F)F)cc2C1=O TRUE

Recorded test outcome, item C[C@H](CO)N1C[C@H](C)[C@H](CN(C)C(=O)Nc2ccccc2)OCCCC[C@H](C)Oc2ccc(NC(=O)NC3CCCCC3)cc2C1=O TRUE

Recorded test outcome, item C[C@@H]1CN([C@@H](C)CO)C(=O)c2cc(NC(=O)c3ccncc3)ccc2O[C@@H](C)CCCCO[C@H]1CN(C)C(=O)Nc1cccc2ccccc12 FALSE

----------
Target: Drosophila melanogaster bursicon receptor LGR2 (rickets)
Experiment: inhibition of bursicon-stimulated LGR2 cAMP signaling – cell-based, HEK293, CRE-luciferase, beta-gal normalized, dry powder, set 2, dose response (AID 743508)
Details: HEK293 LGR2 CRE-luciferase cAMP reporter, antagonist
Active and inactive are the calls of the source. How the calls were made is not given here.
Permitted responses: TRUE (active), FALSE (inactive)

Here are 10 compounds together with their reported answers.
>  <Sample Smiles>
COc1ccc(S(=O)(=O)Nc2ccc3c(c2)C(=O)N([C@@H](C)CO)C[C@@H](C)[C@H](CN(C)C(=O)Nc2cccc4ccccc24)OCCCC[C@H](C)O3)cc1

>  <Assigned Class>
FALSE

$$$$
>  <Sample Smiles>
C[C@H](CO)N1C[C@H](C)[C@H](CN(C)C(=O)Nc2cccc3ccccc23)OCCCC[C@H](C)Oc2ccc(NC(=O)c3ccccc3)cc2C1=O

>  <Assigned Class>
TRUE

$$$$
>  <Sample Smiles>
C[C@H]1CCCCO[C@@H](CN(C)C(=O)Nc2ccccc2)[C@@H](C)CN([C@@H](C)CO)C(=O)c2cc(NC(=O)NC3CCCCC3)ccc2O1

>  <Assigned Class>
TRUE

$$$$
>  <Sample Smiles>
C[C@H](CO)N1C[C@H](C)[C@H](CN(C)C(=O)Nc2ccccc2)OCCCC[C@H](C)Oc2ccc(NC(=O)Nc3ccccc3)cc2C1=O

>  <Assigned Class>
TRUE

$$$$
>  <Sample Smiles>
C[C@H](CO)N1C[C@H](C)[C@H](CN(C)C(=O)Nc2ccc(C(F)(F)F)cc2)OCCCC[C@H](C)Oc2ccc(NC(=O)CCC(F)(F)F)cc2C1=O

>  <Assigned Class>
TRUE

$$$$
>  <Sample Smiles>
CC(C)NC(=O)Nc1ccc2c(c1)C(=O)N([C@H](C)CO)C[C@@H](C)[C@H](CN(C)S(C)(=O)=O)OCCCC[C@H](C)O2

>  <Assigned Class>
FALSE

$$$$
>  <Sample Smiles>
Cc1noc(C)c1S(=O)(=O)Nc1ccc2c(c1)C(=O)N([C@H](C)CO)C[C@H](C)[C@H](CN(C)C(=O)Nc1ccc(F)cc1)OCCCC[C@@H](C)O2

>  <Assigned Class>
FALSE

$$$$
>  <Sample Smiles>
COc1ccc(NC(=O)N(C)C[C@@H]2OCCCC[C@H](C)Oc3ccc(NC(=O)C4CCCCC4)cc3C(=O)N([C@H](C)CO)C[C@@H]2C)cc1

>  <Assigned Class>
TRUE

$$$$
>  <Sample Smiles>
C[C@H](CO)N1C[C@H](C)[C@H](CN(C)C(=O)Nc2ccc(F)cc2)OCCCC[C@H](C)Oc2ccc(NC(=O)NC3CCCCC3)cc2C1=O

>  <Assigned Class>
TRUE

$$$$
>  <Sample Smiles>
C[C@@H]1CCCCO[C@H](CN(C)CC2CCCCC2)[C@H](C)CN([C@H](C)CO)C(=O)c2cc(NS(=O)(=O)c3ccccc3)ccc2O1

>  <Assigned Class>
TRUE

$$$$

Recorded test outcome, item C[C@H](CO)N1C[C@H](C)[C@H](CN(C)C(=O)Nc2ccc(F)cc2)OCCCC[C@H](C)Oc2ccc(NC(=O)C3CCCCC3)cc2C1=O TRUE

Recorded test outcome, item C[C@H](CO)N1C[C@H](C)[C@H](CN(C)C(=O)Nc2ccccc2)OCCCC[C@H](C)Oc2ccc(NC(=O)Nc3ccc4c(c3)OCO4)cc2C1=O TRUE

Recorded test outcome, item C[C@H](CO)N1C[C@H](C)[C@H](CN(C)C(=O)Cc2ccccc2)OCCCC[C@H](C)Oc2ccc(NC(=O)Nc3ccc(C(F)(F)F)cc3)cc2C1=O FALSE

Recorded test outcome, item COc1ccc(NC(=O)Nc2ccc3c(c2)C(=O)N([C@H](C)CO)C[C@H](C)[C@H](CN(C)CC2CCCCC2)OCCCC[C@H](C)O3)cc1 FALSE

Recorded test outcome, item C[C@H]1CCCCO[C@@H](CN(C)C(=O)Nc2ccc3c(c2)OCO3)[C@@H](C)CN([C@@H](C)CO)C(=O)c2cc(NC(=O)NC3CCCCC3)ccc2O1 TRUE
